// provenance: ChEMBL document CHEMBL4725442

# target-system: D(3) dopamine receptor (Homo sapiens, UniProt P35462)
# Sequence (P35462 whole entry): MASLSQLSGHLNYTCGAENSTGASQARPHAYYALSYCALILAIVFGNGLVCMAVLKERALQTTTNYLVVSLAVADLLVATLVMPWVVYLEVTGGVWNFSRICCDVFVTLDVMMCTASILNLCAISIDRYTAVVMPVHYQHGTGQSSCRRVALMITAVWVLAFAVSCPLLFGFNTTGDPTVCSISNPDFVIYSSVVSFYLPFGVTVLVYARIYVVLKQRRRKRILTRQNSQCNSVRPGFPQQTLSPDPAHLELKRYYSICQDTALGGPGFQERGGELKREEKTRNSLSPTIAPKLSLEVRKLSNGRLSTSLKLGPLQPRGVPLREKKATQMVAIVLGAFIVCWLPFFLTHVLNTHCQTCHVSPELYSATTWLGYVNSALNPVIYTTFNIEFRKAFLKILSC
measurement-kind: Ki (µM)
Report only the number, with the unit µM understood.

O=C(NCCCCN1CCO[C@@H]2c3cc(O)ccc3OC[C@@H]21)c1cc2ccccc2[nH]1 (relative stereo): 13.8

Ask: Data request, read-out Ki, for O=C(NCCCCN1CCO[C@H]2c3cc(O)ccc3OC[C@@H]21)c1cc2ccccc2[nH]1 (relative stereo)
Reply: 5.54

---

# target-system: Mu-type opioid receptor (Homo sapiens)
# Sequence (P35372 whole entry): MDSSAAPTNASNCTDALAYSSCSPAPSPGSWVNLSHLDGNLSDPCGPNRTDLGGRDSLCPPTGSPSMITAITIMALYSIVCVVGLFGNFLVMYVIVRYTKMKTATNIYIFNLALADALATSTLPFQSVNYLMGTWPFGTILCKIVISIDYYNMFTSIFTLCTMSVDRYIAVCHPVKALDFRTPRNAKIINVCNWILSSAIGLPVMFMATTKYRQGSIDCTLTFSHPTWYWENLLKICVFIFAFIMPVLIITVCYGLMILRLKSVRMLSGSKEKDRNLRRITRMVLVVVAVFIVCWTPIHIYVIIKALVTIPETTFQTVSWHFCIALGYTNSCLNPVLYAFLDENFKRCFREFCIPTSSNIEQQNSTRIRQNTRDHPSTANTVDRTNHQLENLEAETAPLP
pKi: −log10 of the molar value.
measurement-kind: pKi

Ask: Data request, read-out pKi, for CCCN1CC(c2ccc(N)nc2)OC[C@@H]1C (mixture of isomers)
Reply: < 4.00
